In this section we review reported CC50 at 48 h values for a set of compounds.
Assay: in vitro
Conditions: dog

Give the measured CC50 at 48 h of `Oc1cc(O)c2c(c1)O[C@H](c1ccc(O)c(O)c1)[C@H](O)[C@H]2c1c(O)cc(O)c2c1O[C@H](c1ccc(O)c(O)c1)[C@H](O)[C@H]2c1c(O)cc(O)c2c1O[C@H](c1ccc(O)c(O)c1)[C@H](O)C2` .
> 200 µM

Give the measured CC50 at 48 h of O=C(O[C@@H]1Cc2c(O)cc(O)cc2O[C@@H]1c1cc(O)c(O)c(O)c1)c1cc(O)c(O)c(O)c1 [compound 6, reference compound] .
> 200 µM

Give the measured CC50 at 48 h of O=C1O[C@H]2[C@@H]3OC(=O)c4cc(O)c(O)c(O)c4-c4c(cc(O)c(O)c4O)C(=O)OC[C@H]2O[C@@H](OC(=O)c2cc(O)c(O)c(O)c2)[C@@H]3OC(=O)c2cc(O)c(O)c3c2[C@@H]2C1=CC(=O)[C@](O)(O3)C2(O)O [compound 13, geraniin, reference compound] .
162 µM

Give the measured CC50 at 48 h of Oc1cc(O)c2c(c1)O[C@H](c1ccc(O)c(O)c1)[C@H](O)[C@H]2c1c(O)cc(O)c2c1O[C@H](c1ccc(O)c(O)c1)[C@H](O)C2 [compound 7, epicatechin-(4β→8)-epicatechin] .
> 200 µM

Give the measured CC50 at 48 h of Oc1cccc(O)c1O [compound 18, pyrogallol, reference compound] .
176 µM

Give the measured CC50 at 48 h of `Oc1cc(O)c2c(c1)O[C@H](c1ccc(O)c(O)c1)[C@H](O)[C@H]2c1c(O)cc(O)c2c1O[C@H](c1ccc(O)c(O)c1)[C@H](O)[C@H]2c1c(O)cc(O)c2c1O[C@H](c1ccc(O)c(O)c1)[C@H](O)[C@H]2c1c(O)cc(O)c2c1O[C@H](c1ccc(O)c(O)c1)[C@H](O)C2` .
> 200 µM

Give the measured CC50 at 48 h of O=C(O[C@@H]1O[C@@H]2COC(=O)c3cc(O)c(O)c(O)c3-c3c(cc(O)c(O)c3O)C(=O)O[C@H]([C@H]1O)[C@@H]2O)c1cc(O)c(O)c(O)c1 [compound 14, corilagin, reference compound] .
120 µM

Give the measured CC50 at 48 h of Oc1cc(O)c2c(c1)O[C@H](c1ccc(O)c(O)c1)[C@H](O)[C@H]2c1c(O)cc2c(c1O)C[C@@H](O)[C@@H](c1ccc(O)c(O)c1)O2 [compound 9, epicatechin-(4β→6)-epicatechin] .
> 200 µM

* * *

In this section we review reported inhibition at 2 µM values for a set of compounds.
Test system: IAV(H1N1)pdm09 isolate I1
Assay: microbe, parasite or virus in culture
Format: cell-based, influenza A virus
Conditions: Influenza A virus, H1N1, 48 h; 2 µM; read-out: anti-IAV activity
// return numeric value only (unit: %, not printed)

Give the measured inhibition at 2 µM of O=c1oc2c(O)c(O)cc3c(=O)oc4c(O)c(O)cc1c4c23 [compound 15, ellagic acid, reference compound] .
0

Now look at this one.
Give the measured inhibition at 2 µM of O=C(/C=C/c1ccc(O)c(O)c1)O[C@H](Cc1ccc(O)c(O)c1)C(=O)O [compound 16, rosmarinic acid, reference compound] .
0
